- Tested on: Moraxella catarrhalis
Where a name gives a salt, the structure may show the parent alone.
Measure Name: MIC (µg/mL)
Return type: number; implicit unit µg/mL.

Exercise: Quick check: MIC of CN[C@@H]1[C@H](O)[C@H](NC)[C@H]2O[C@]3(O)[C@H](O[C@@H]2[C@H]1O)O[C@H](C)C[C@@]3(O)CNCc1ccc(C)cc1C [compound 24, Trihydrochloride] ?
Solution: 1.6

Exercise: What value of MIC has been recorded for this entry: `CN[C@@H]1[C@H](O)[C@H](NC)[C@H]2O[C@]3(O)[C@H](O[C@@H]2[C@H]1O)O[C@H](C)C[C@@]3(O)CNCc1ccncc1`
Solution: 12.5

Exercise: Given the compound `CN[C@@H]1[C@H](O)[C@H](NC)[C@H]2O[C@]3(O)[C@H](O[C@@H]2[C@H]1O)O[C@H](C)C[C@@]3(O)CNCCc1ccc[nH]1` , what is its reported MIC?
Solution: 12.5

Exercise: Give its MIC value. Item: CN[C@@H]1[C@H](O)[C@H](NC)[C@H]2O[C@]3(O)[C@H](O[C@@H]2[C@H]1O)O[C@H](C)C[C@@]3(O)CNCc1cccc(OC(F)(F)F)c1 [compound 25, Trihydrochloride]
Solution: 6.3

###

Would you mind telling me the reported MIC of each entry?
- Test system: M. tuberculosis clinical isolates
- Test Method Notes: microbe, parasite or virus in culture
- Assay type: cell-based
- Experimental Context: Mycobacterium tuberculosis, H37RV, read-out: MIC H37Rv
Structures can show the parent of a compound that is named as a salt.
Use µg/mL as the unit, but write only the number.

Exercise: Entry CN[C@@H]1[C@H](O)[C@H](NC)[C@H]2O[C@]3(O)[C@H](O[C@@H]2[C@H]1O)O[C@H](C)C[C@@]3(O)CNCc1cccs1 [compound 17, Trihydrochloride] , system M. tuberculosis clinical isolates: what MIC was measured?
Solution: 25

Exercise: Return MIC measured with M. tuberculosis clinical isolates given this molecule: CN[C@@H]1[C@H](O)[C@H](NC)[C@H]2O[C@]3(O)[C@H](O[C@@H]2[C@H]1O)O[C@H](C)C[C@@]3(O)CNCc1cnc[nH]1 [compound 20]
Solution: 6.3

Exercise: Provide the documented MIC with M. tuberculosis clinical isolates as the system for CN[C@@H]1[C@H](O)[C@H](NC)[C@H]2O[C@]3(O)[C@H](O[C@@H]2[C@H]1O)O[C@H](C)C[C@@]3(O)CNCc1ccco1 [compound 8, Trihydrochloride]
Solution: 25

Exercise: # value lookup — system M. tuberculosis clinical isolates, readout MIC, item CN[C@@H]1[C@H](O)[C@H](NC)[C@H]2O[C@]3(O)[C@H](O[C@@H]2[C@H]1O)O[C@H](C)C[C@@]3(O)CNCc1ccccc1OC(F)(F)F [compound 10, Trihydrochloride]
Solution: 200

Exercise: Look up MIC with M. tuberculosis clinical isolates for this molecule: CN[C@@H]1[C@H](O)[C@H](NC)[C@H]2O[C@]3(O)[C@H](O[C@@H]2[C@H]1O)O[C@H](C)C[C@@]3(O)CNCCc1cccs1 [compound 61, trihydrobromide]
Solution: 6.3

Exercise: Identify the measured MIC of CN[C@@H]1[C@H](O)[C@H](NC)C2O[C@]3(O)C(OC2[C@H]1O)O[C@H](C)C[C@@]3(O)CNCc1ccc(-c2ccccc2)cc1 (stereo partly shown) [compound 40] for M. tuberculosis clinical isolates.
Solution: 100

Exercise: Param readout= MIC; system= M. tuberculosis clinical isolates; entry= CN[C@@H]1[C@H](O)[C@H](NC)[C@H]2O[C@]3(O)[C@H](O[C@@H]2[C@H]1O)O[C@H](C)C[C@@]3(O)CNCCc1ccc(Cl)cc1 [compound 54, Trihydrobromide] ; returns value.
Solution: 25

Exercise: Please state recorded MIC (tested on M. tuberculosis clinical isolates) of CN[C@@H]1[C@H](O)[C@H](NC)[C@H]2O[C@]3(O)[C@H](O[C@@H]2[C@H]1O)O[C@H](C)C[C@@]3(O)CNCc1ccccc1F [compound 14, Trihydrochloride]
Solution: 50
